Assay: Cmax at steady state in diet-induced obese C57BL/6J mouse model plasma at 30 mg/kg, po bid dosed through micronized suspension for 14 days measured at day 14
Type: ADME, organism-based
Parameters: dose 30 mg/kg, route oral
OUTCOME_MEASURE: Cmax (µM)
The reply should be a number in µM, with the unit left off.

Param item = Cc1nc(N2CCC(N3CCCC3=O)CC2)nc2ccc(NC(=O)/C=C/c3ccc(OC(F)(F)F)cc3)cc12 ; retrieve measured Cmax.
17.7

Let us now turn to Cc1nc(N2CCC(N3CCOC3=O)CC2)nc2ccc(NC(=O)/C=C/c3ccc(OC(F)(F)F)cc3)cc12
12.7

Subsequent entry: Cc1nc(N2CCC(N3CCOCC3=O)CC2)nc2ccc(NC(=O)/C=C/c3ccc(OC(F)(F)F)cc3)cc12
16.5
